test: yeast display, Sf9 membrane polyspecificity reagent, FACS + sequencing; frameworks hold sequencing errors
property_label: polyreactivity (PSR sort gate)

Worked cases, polyreactivity (PSR sort gate) given:
Prompt: Please report the recorded polyreactivity (PSR sort gate) for "QVQLVESGGGLVQAGGTLRLSCSASGRTFQVYAMGWYRQAPGKERELVAGITRAGSTYYADSVKGRFTISRDNAKNTVYLQMNSLKPEDTAVYYCAASRWHGYNYWGQGTQVTVSS" .
Response: high polyreactivity

Prompt: Same question for "QVQLVESGGGLVQAGGSLRLSCAASGRTLYHYGMGWYRQAPGKERELVAAINFSGGSTNYADSVKGRFTISRDNAKNTVYLQMNSLKPEDTAVYYCNNEGRPDRDYWGQGTQVTVSS" please.
Response: low polyreactivity

Prompt: And what about the sequence "QVQLVESGVGLVQAGGSLRLLCAASGSIFTTYPMGWYRPAPGKERELVAAITSSSGSTYYADSVKGRFTISRDNAKNTVYLQMNSLKPEDTAVYYCNATYSAAVDYWGQGTQVTVSS" ?
Response: low polyreactivity

Prompt: Check "QVQLVESGGGLVQAGGSLRLSCAASGIILYRNGMGWYRQAPGKERELVAVISRRGGTYYADSVKGRFTISRDNAKITVYLQLNSLKPEDTAVYYCAAYLSPIGNFRGGGDYWGQGTQVTVSS" too.
Response: high polyreactivity

Prompt: Proceed to "QVQLVESGGGLVQAGGSLRLSCASSGSTFRRNAMGWYRQAPGKERELVAAITWRGTSTYYADSVKGRFTISRDNAKNTVYLQMNSLKPEDTAVYYCNAVYNPYTTYSLSAYDYWGQGTQVTVSS"
Response: high polyreactivity

Further cases:
Prompt: Entry under review: "QVQLVESGGGLVQAGGSLRLSCAASGSTFISYAMGWYRQAPGKEREWVAAISRRGDSTYYADSVKGRFTISRDNAKNTVYLQMKSLKPEDTAVYYCAADVSGDKGSIHMNYWGQGTQVTVSS" . Reported polyreactivity (PSR sort gate)?
Response: low polyreactivity

Prompt: Also check "QVQLVESGGGLVQAGGSLRLSCAASGRISVFYAMGWYRQAPGKERELVAAITRSGTTKYADSVKGRFTISRDNAKNTVYLQMNSLKPEDTAVYYCAADSSRFFYGVYNYRQYGYWGQGSQVTVSS"
Response: high polyreactivity

Prompt: Request: "QVQLVESGGGLVQAGGSLRLSCAASGSTINQYPLGWYRQATGKERELVAAITRRGGSTYYADSVKGRFTISRDNAKNTVYLQMNSLKPEDTAVYYCAAAYPYTTVSYDYWGQGTQVTVSS"
Response: high polyreactivity

Prompt: Same again, this time with "QVQLVESGGGLVQAGGSLRLSCAASGLIFQEYAMGWYRQAPGKERELVAAITSGDSTNYADSVKGRFTISRDNAKNTVYLQMNSLKPEDTAVYYCNVDEAYYFVGEDNYDYWGQGTQVTVSS"
Response: low polyreactivity

Prompt: Ok, now "QVQLVESGGGLVQAGGSLRLSCAASGRTFISYAMGWYRQAPGKERELVAAISGRGGSTYFADSVKGRFTISRDNAKNTVYLQMNSLKQEDTAVYYCAAEWFGVYRRYKYDYWGQGTQVTVSS"
Response: low polyreactivity
